Value source: PubChem BioAssay

# measurementDescription: small molecules captured by biotinylated probe aFGF10 – biochemical, small-molecule microarray, fluorescence 635/667, stem cell growth factor project, primary screen (AID 1071);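 also: score merges 667 nm spot intensity and signal to noise from triplicate slides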
# conditionParameters: higher = more signal

# smilesCode, composite z-score
records = [
    ("CN(C)C(=O)[C@@]1(CCC(=O)OC(C)(C)C)COC(c2ccc(OCCCO)cc2)=N1", 0.448),
    ("COC(=O)[C@@]1(Cc2ccc(F)cc2)[C@H]2c3cc(C(=O)N(C)C)n(Cc4ccc(C)c(F)c4F)c3C[C@H]2CN1C(=O)c1ccccc1", 0.795),
    ("CCOC(=O)C[C@H]1[C@H](OC(=O)Cc2ccc3c(c2)OCO3)[C@@H](NC(=O)c2ccccc2)c2cc(OCCCO)ccc2N1C(=O)c1ccc2ccccc2n1", 0.352),
    ("O=C1O[C@H](c2ccccc2)[C@H](c2ccccc2)N2[C@H]1[C@@H](C(=O)N1CCCCCCC1)[C@]1(C(=O)Nc3ccccc31)[C@H]2c1ccc(O)cc1", 1.61),
]

---

# measurementDescription: growth modulation of vineyard yeast isolate – strain RM11-1a, OD600, basal, 24 h, primary screen (AID 1177);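 also: cultures grown under basal conditions with no added stressor; test concentration not given here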
# conditionParameters: S. cerevisiae RM11-1a growth, OD600, 24 h; higher = more signal, called active from +8 up or from −8 down

# compound, z-score
rows = [
    ("Cc1ccc(C(C)CC(O)C2C=CC3C(=O)N(Cc4ccccc4)C(=O)C3N2n2cnnc2)o1 (stereo not drawn)", -1.4),
    ("COCCCNC(=O)[C@@H]1c2ccccc2C(=O)N(Cc2cc(F)cc(C(F)(F)F)c2)[C@H]1c1ccc(CO)cc1", -0.955),
    ("C#CCOC(=O)N[C@H](C=CCCCC)c1ccccc1", -0.0736),
    ("Cc1ccc(S[C@]2(C(=O)O)CC(=O)N(C3CCCCC3)[C@@H]2c2ccc(CO)cc2)cc1", -0.332),
    ("CC(C)C[C@@H]1NC(=O)[C@@H]2C[C@H](C(=O)NCc3ccc(F)cc3)[C@H](c3ccc(O)cc3)N2C1=O", -0.647),
    ("COC(=O)[C@@]1(Cc2ccc(F)cc2)[C@@H]2[C@@H](CC(=O)[C@H]2CC(=O)C(=O)N2CCCC2)CN1C(=O)c1ccccc1", 0.23),
    ("C=CCC(OC(C)=O)[C@@H]1[C@@H](N(Cc2ccc(-c3ccccc3)cc2)C(=O)Cc2ccc(OC)cc2)c2cc(OCCCO)ccc2N1C(=O)c1ccc(-c2ccccc2)cc1 (stereo partly drawn)", -0.754),
    ("CN1C(=O)C2C=CC(C(O)c3cccc4ccccc34)N(NC(=O)OC(C)(C)C)C2C1=O (stereo not drawn)", -0.0808),
]

---

# measurementDescription: S. pombe growth modifiers, basal conditions – strain 972, OD600, 24 h, no modulator, primary screen (AID 1090);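 also: basal condition with compound alone and no growth modifier present; test concentration not given here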
# conditionParameters: S. pombe 972 growth, higher = more signal, called active from +8 up or from −8 down
Think of -0.8 as a floor: if z-score stands on it or above, it is met; beneath it, not met.

# compound, qualitativeLabel
rows = [
    ("CCOC(=O)C1=CC[C@@H](c2cccc(Br)c2)N(S(=O)(=O)c2ccc(C)cc2)[C@H]1c1ccc([N+](=O)[O-])cc1", "not met"),
    ("NC(=O)NCC#Cc1ccc2c(c1)[C@]1(C(=O)N2)[C@H](c2ccc(OCCO)cc2)N2[C@H](c3ccccc3)[C@H](c3ccccc3)OC(=O)[C@H]2[C@@H]1C(=O)N1CCN(c2ncccn2)CC1", "met"),
    ("CN(C)CCCC[C@@H]1NC(=O)[C@H]2C[C@@H](C(=O)NCCCCCCNC(=O)CS)[C@@H](c3ccc(O)cc3)N2C1=O", "met"),
    ("CC(C)C[C@H]1NC(=O)[C@H](C)NC(=O)[C@@]23C(=O)N[C@@H](Cc4ccccc4)C2[C@H](C)[C@@]2(C)O[C@H]2C3/C=C/C/C=C\\CNC1=O (some centres not stated)", "not met"),
    ("COC(=O)[C@H]1N=C(c2ccc(OCCCO)cc2)O[C@H]1c1ccccc1CN=[N+]=[N-]", "met"),
    ("O=C1O[C@H](c2ccccc2)[C@H](c2ccccc2)N2[C@H]1[C@@H](C(=O)N1CCN(c3ncccn3)CC1)[C@]1(C(=O)Nc3ccc(C#CCCO)cc31)[C@H]2c1ccccc1OCCO", "not met"),
    ("Cc1cc(C)c(C(O)C2C=CC3C(=O)N(c4ccccc4)C(=O)C3N2Nc2ccccc2)c(C)c1 (configuration not stated)", "met"),
    ("COCCOC(=O)N1C(=O)[C@@]2(c3cc(C#CCCO)ccc31)[C@H](C(=O)NC[C@H](O)c1ccccc1)[C@H]1C(=O)O[C@H](c3ccccc3)[C@H](c3ccccc3)N1[C@@H]2c1ccccc1OCCO", "met"),
    ("COc1ccc(C(=O)Nc2ccc(CN3C(=O)[C@]4(O[C@H](CCn5cc([C@H](O)c6ccccc6)nn5)[C@@H]([Si](C)(C)c5ccc(OC)cc5)[C@@H]4C)c4ccccc43)cc2)cc1", "met"),
    ("CCOC(=O)C[C@H]1[C@H](OC(=O)c2ccccc2-c2ccccc2)[C@@H](NC(=O)c2ccccc2)c2cc(OCCCO)ccc2N1C(=O)Cc1ccc(OC)cc1", "met"),
    ("COCCOC(=O)N1C(=O)[C@@]2(c3cc(C#Cc4ccc(OC)cc4)ccc31)[C@H](C(N)=O)[C@H]1C(=O)O[C@H](c3ccccc3)[C@H](c3ccccc3)N1[C@@H]2c1ccc(OCCO)cc1", "met"),
    ("CC(C)CNC(=O)[C@@]1(C)c2ccccc2C(=O)N(Cc2ccccc2)[C@H]1c1ccc(CO)cc1", "not met"),
]
